# credit: ChEMBL document CHEMBL4513216

test: Toxicity liver stage against HepG2, at 10uM; assay type: cell-based; parameters: test concentration 10 uM, cell line HepG2-A16-CD81EGFP; conditions: human, HepG2-A16-CD81EGFP cells; read-out: INHIBITION
measured metric: cytotoxicity at 10 µM (%)
Give just the numeric value; % need not be written.

GET /value?item= CC(O)CN(CC(=O)NC(=O)NCC(F)(F)F)c1ccccc1 (configuration not stated) &field=cytotoxicity at 10 µM returns 1.15

GET /value?item= Cc1c(C(=O)N2CCOCC2)n(C)c2ccc(Cl)cc12 &field=cytotoxicity at 10 µM returns -0.244

GET /value?item= Cc1n[nH]c(C)c1CC(=O)N1CCCN(C)C2(CCN(C)CC2)C1 &field=cytotoxicity at 10 µM returns 11.7

GET /value?item= CC[C@@H]1N(Cc2nccs2)CCC[C@]12CCC(=O)N2C &field=cytotoxicity at 10 µM returns 0.287

GET /value?item= CCc1noc(C2CCCCN2C(=O)c2cc(C)on2)n1 (configuration not stated) &field=cytotoxicity at 10 µM returns 5.67

GET /value?item= CSCCC(NC(N)=O)C(=O)NCc1ccc(-n2cccn2)cc1 (configuration not stated) &field=cytotoxicity at 10 µM returns 18

GET /value?item= COc1ccccc1CC(C)(C)NC(=O)CC(F)(F)F &field=cytotoxicity at 10 µM returns 6.08

GET /value?item= CCc1ncncc1C(=O)N1CCN(Cc2cscn2)CC1 &field=cytotoxicity at 10 µM returns 0.512

GET /value?item= CN1C(=O)C2(CCCN(C(=O)c3cccnc3O)C2)c2ccccc21 (configuration not stated) &field=cytotoxicity at 10 µM returns -5.21

GET /value?item= O=C(C1CCC1)N1CCN(C(=O)c2cnccn2)[C@H]2CS(=O)(=O)C[C@H]21 &field=cytotoxicity at 10 µM returns -10.8

GET /value?item= COc1ccc(OC)c(C2CCN(C(=O)CCc3n[nH]c(N)n3)C2)c1 (configuration not stated) &field=cytotoxicity at 10 µM returns 5.27

GET /value?item= CCC(=O)N1CC[C@H]2[C@H](C[C@@H](Cn3cccn3)N2c2nccs2)C1 &field=cytotoxicity at 10 µM returns 5.68

GET /value?item= Cc1cnc(NC(=O)N2CCCC2)s1 &field=cytotoxicity at 10 µM returns -13.6

GET /value?item= CN(C)[C@@H]1COC[C@@H]2CN(Cc3ccc4c(c3)OCO4)C[C@@H]21 &field=cytotoxicity at 10 µM returns 2.02

GET /value?item= CC(=O)N1CCCN(C(=O)NCCCn2cncn2)CC1 &field=cytotoxicity at 10 µM returns -10.1

GET /value?item= CCS(=O)(=O)c1ccccc1N1CCC(NC(=O)C2CC2)CC1 &field=cytotoxicity at 10 µM returns -1.58

GET /value?item= O=C(C1CC1)N1CCC(Oc2ccccc2Cl)CC1 &field=cytotoxicity at 10 µM returns 25.6

GET /value?item= CC(c1nc(C(C)(C)C)no1)N1CCN(CC(=O)N2CCOCC2)CC1 (configuration not stated) &field=cytotoxicity at 10 µM returns -2.67

GET /value?item= O=C(CCn1nnc2ccccc2c1=O)N(CC1CCOC1)C1CC1 (configuration not stated) &field=cytotoxicity at 10 µM returns -8.5

GET /value?item= CS(=O)(=O)N1CCCC(C(=O)Nc2cnn(Cc3ccc(Cl)cc3)c2)C1 (configuration not stated) &field=cytotoxicity at 10 µM returns -6.5

GET /value?item= CCN1CCC2(CC1)CC(NC(=O)c1ccnnc1)c1ccccc12 (configuration not stated) &field=cytotoxicity at 10 µM returns -6.9

GET /value?item= COC(=O)C(NC(=O)C1CCCC1)c1cc(F)ccc1F (configuration not stated) &field=cytotoxicity at 10 µM returns 5.67

###

Field: cytotoxicity at 10 µM. Provide a value for each of the compounds that follow.
assay: Toxicity liver stage against HepG2, at 10uM; type: cell-based; design: test concentration 10 uM, cell line HepG2-A16-CD81EGFP; settings: human, HepG2-A16-CD81EGFP cells; read-out: INHIBITION
Give just the numeric value; % need not be written.

GET /value?item= Cc1cs/c(=N/C(=O)c2csc(NCC(C)C)n2)[nH]1 &field=cytotoxicity at 10 µM returns 22.9

GET /value?item= c1ccc(COC[C@H]2CC[C@H]3[C@H](CCN3Cc3ccccn3)O2)nc1 &field=cytotoxicity at 10 µM returns -84.7

GET /value?item= COc1ccccc1OCCNC(=O)CN1CCc2cncnc2C1 &field=cytotoxicity at 10 µM returns -15.6

GET /value?item= COc1ccc(CN(Cc2cn(C)nc2C)CC2CCCO2)c(OC)c1 (centres undefined) &field=cytotoxicity at 10 µM returns -7.3

GET /value?item= Cc1ccc2cnn(CCC(=O)Nc3c(C)nn(C)c3C)c2c1 &field=cytotoxicity at 10 µM returns -13.4

GET /value?item= COCc1noc(Cn2ccc3ncccc3c2=O)n1 &field=cytotoxicity at 10 µM returns 1.56

GET /value?item= CCOCC1CN(C(=O)c2ccncn2)Cc2cnn(C)c21 (centres undefined) &field=cytotoxicity at 10 µM returns -143

GET /value?item= c1ccc(COC2C[C@@H]3CN(Cc4cncnc4)C[C@@H]3C2)cc1 (some centres undefined) &field=cytotoxicity at 10 µM returns -40

GET /value?item= O=C(c1ccncc1)N1CCc2onc(CN3CCCC3)c2C1 &field=cytotoxicity at 10 µM returns -3.7

GET /value?item= CC(=O)N1CCC(Cc2cnc(-c3c(C)n[nH]c3C)cn2)CC1 &field=cytotoxicity at 10 µM returns -21.7

GET /value?item= CC(C)c1nnc2n1CCN(Cc1csc(-c3cnn(C)c3)n1)C2 &field=cytotoxicity at 10 µM returns -2.17

GET /value?item= CC(C)c1cnc(CNc2c(F)cccc2-n2cccn2)o1 &field=cytotoxicity at 10 µM returns -6.07

GET /value?item= CN(CCc1nc2ccccc2c(=O)[nH]1)CCC(F)(F)F &field=cytotoxicity at 10 µM returns -2.27

GET /value?item= Cc1nn(-c2ccccc2)c(C)c1-c1ccnc(N2CCCNCC2)n1 &field=cytotoxicity at 10 µM returns -9.5

###

assay: Toxicity liver stage against HepG2, at 10uM; type: cell-based; set-up: test concentration 10 uM, cell line HepG2-A16-CD81EGFP; conditions: human, HepG2-A16-CD81EGFP cells; read-out: INHIBITION
measured metric: cytotoxicity at 10 µM (%)
Give just the numeric value; % need not be written.

GET /value?item= CCC(CO)N(Cc1cccc(O)c1)Cc1ccccc1C (configuration not stated) &field=cytotoxicity at 10 µM returns -8.22

GET /value?item= COc1cc2c(nn1)CCN(Cc1nc(Cc3ccccc3)no1)C2 &field=cytotoxicity at 10 µM returns -2.09

GET /value?item= COC(=O)N1CCC(CNC(=O)C2CCN(S(C)(=O)=O)CC2)CC1 &field=cytotoxicity at 10 µM returns -2.72

GET /value?item= Cc1ccc2c(c1)nc1n2[C@@H](CNC(=O)c2cncnc2)COC1 &field=cytotoxicity at 10 µM returns 5.6

GET /value?item= O=C(N[C@@H]1CCN(Cc2ccc(F)cc2F)C[C@H]1O)c1cccnc1 &field=cytotoxicity at 10 µM returns -10.4

GET /value?item= Cc1nc(C(=O)N2CC(C)Sc3ccccc32)cs1 (configuration not stated) &field=cytotoxicity at 10 µM returns -3.71

GET /value?item= NC(=O)C1CN(C(=O)c2ccc(F)cc2)CCN1CCc1ccccc1 (configuration not stated) &field=cytotoxicity at 10 µM returns 2.77

GET /value?item= Cc1ccc(CCCC(=O)N2CCCC(CS(N)(=O)=O)C2)s1 (configuration not stated) &field=cytotoxicity at 10 µM returns 17.9

GET /value?item= CCOc1ccc(C2CC(=O)Nc3c2c(=O)nc2sccn32)cc1 (configuration not stated) &field=cytotoxicity at 10 µM returns -12.7

GET /value?item= CC(C)(C)NC(=O)c1ccn(COc2c(Cl)cccc2Cl)n1 &field=cytotoxicity at 10 µM returns 3.02

GET /value?item= CNC(=O)c1nc(CC(=O)Nc2ccc3cc[nH]c3c2)no1 &field=cytotoxicity at 10 µM returns 7.98

GET /value?item= Cc1ccc(C(=O)N2CCO[C@H]3[C@H](OCCN(C)C)CC[C@@H]32)cn1 &field=cytotoxicity at 10 µM returns 4.85

GET /value?item= Cc1n[nH]c(C)c1NC(=O)NCc1ccccn1 &field=cytotoxicity at 10 µM returns 1.85

GET /value?item= CCOc1cc(=O)n2c(c1C(=O)OCc1ccc(C)cc1)CCCC2 &field=cytotoxicity at 10 µM returns 3.11

GET /value?item= COc1ccccc1C(NC(=O)C1CCCC1)c1noc(C)n1 (configuration not stated) &field=cytotoxicity at 10 µM returns -2.17

GET /value?item= CCOc1ncccc1NC(=O)c1cccs1 &field=cytotoxicity at 10 µM returns 0.932

GET /value?item= Cn1ncc(NCc2cccc(COC(C)(C)C)c2)c(Cl)c1=O &field=cytotoxicity at 10 µM returns 42.2

GET /value?item= COCCn1ccnc1-c1[nH]cnc1C &field=cytotoxicity at 10 µM returns -18.4

GET /value?item= CC(C)c1ncc(C(=O)N(C)c2ccc(Br)cn2)s1 &field=cytotoxicity at 10 µM returns 9.12

GET /value?item= COc1ccc(CNC(=O)N2CCN(C)[C@@H]3CS(=O)(=O)C[C@@H]32)cc1 &field=cytotoxicity at 10 µM returns 8.64

GET /value?item= CN(C)[C@H]1CN(C(=O)c2ccc3sc4c(c3c2)CCNC4=O)C[C@@H]1O &field=cytotoxicity at 10 µM returns -5.38

GET /value?item= CC1CCN(CCNC(=O)c2cncnc2C(C)C)CC1 &field=cytotoxicity at 10 µM returns -12

GET /value?item= O=S(=O)(C1CC1)N1CCc2ncnc(N3CCCC3)c2CC1 &field=cytotoxicity at 10 µM returns -98.6

GET /value?item= Cn1cc(N2C(=O)CC[C@@H]3[C@H]2CCN3Cc2ccncc2)cn1 &field=cytotoxicity at 10 µM returns -8.85

GET /value?item= CN(Cc1cnccn1)C(=O)c1ccc(CSc2nnc[nH]2)o1 &field=cytotoxicity at 10 µM returns 1.22

GET /value?item= Cc1cc(C)c(S(N)(=O)=O)cc1C(=O)NCCN1CCCCC1 &field=cytotoxicity at 10 µM returns -5.52

GET /value?item= O=C(c1cc(Cn2cnc3ccccc32)on1)N1CCOCC1 &field=cytotoxicity at 10 µM returns -2.46
